Tested on: Rh18 complex spheroid viability, percent test/control
ASSAY REMARKS: Anticancer human tumor Rh18 cell line growth inhibition [Asc]; active = viability on the fitted dose curve at most 10% of control; inactive = the rest;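 also: spheroids exposed to compound for 7 days; 100% = DMSO vehicle control wells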
CONDITION INFO: second compound 0.1 µM; first compound 0.0316 µM
Outcomes: 1 (yes) for active, 0 (no) for inactive

INSERT INTO assay_data (compound, group) VALUES
  ('COc1c(OCCCN2CCOCC2)ccc2c3n(c(=NC(=O)c4cnc(N)nc4)nc12)CCN3 + Cc1c(S(C)(=O)=O)c(-c2cc(F)cc(N3CCN(c4ccc(NS(=O)(=O)c5ccc(NC(CCN6CCC(C(=O)OCCCP(=O)(O)O)CC6)CSc6ccccc6)c(S(=O)(=O)C(F)(F)F)c5)cc4)CC3)c2)c(-c2ccc(Cl)cc2)n1C(C)C', '1 (yes)'),
  ('NC1CCC(NC2CC2c2ccccc2)CC1 (configuration not stated) + CNC(C)C(=O)NC1CN(S(=O)(=O)c2cccc(S(=O)(=O)N3CCC4CCC(C(=O)NC(c5ccccc5)c5ccccc5)N4C(=O)C(NC(=O)C(C)NC)C3)c2)CCC2CCC(C(=O)NC(c3ccccc3)c3ccccc3)N2C1=O', '0 (no)'),
  ('O=C(c1ccc(F)c(F)c1Nc1ccc(I)cc1F)N1CC(O)([C@@H]2CCCCN2)C1 + Cc1c(S(C)(=O)=O)c(-c2cc(F)cc(N3CCN(c4ccc(NS(=O)(=O)c5ccc(NC(CCN6CCC(C(=O)OCCCP(=O)(O)O)CC6)CSc6ccccc6)c(S(=O)(=O)C(F)(F)F)c5)cc4)CC3)c2)c(-c2ccc(Cl)cc2)n1C(C)C', '0 (no)'),
  ('Cn1ncnc1[C@H]1c2n[nH]c(=O)c3cc(F)cc(c23)N[C@@H]1c1ccc(F)cc1 + Cc1c(S(C)(=O)=O)c(-c2cc(F)cc(N3CCN(c4ccc(NS(=O)(=O)c5ccc(NC(CCN6CCC(C(=O)OCCCP(=O)(O)O)CC6)CSc6ccccc6)c(S(=O)(=O)C(F)(F)F)c5)cc4)CC3)c2)c(-c2ccc(Cl)cc2)n1C(C)C', '0 (no)'),
  ('C=CC(=O)N1CCN(c2nc(=O)n(-c3c(C)ccnc3C(C)C)c3nc(-c4c(O)cccc4F)c(F)cc23)C(C)C1 (configuration not stated) + Cc1c(S(C)(=O)=O)c(-c2cc(F)cc(N3CCN(c4ccc(NS(=O)(=O)c5ccc(NC(CCN6CCC(C(=O)OCCCP(=O)(O)O)CC6)CSc6ccccc6)c(S(=O)(=O)C(F)(F)F)c5)cc4)CC3)c2)c(-c2ccc(Cl)cc2)n1C(C)C', '0 (no)'),
  ('NC1CCC(NC2CC2c2ccccc2)CC1 (configuration not stated) + Cc1c(S(C)(=O)=O)c(-c2cc(F)cc(N3CCN(c4ccc(NS(=O)(=O)c5ccc(NC(CCN6CCC(C(=O)OCCCP(=O)(O)O)CC6)CSc6ccccc6)c(S(=O)(=O)C(F)(F)F)c5)cc4)CC3)c2)c(-c2ccc(Cl)cc2)n1C(C)C', '0 (no)'),
  ('CCN1CCN(Cc2ccc(Nc3ncc(F)c(-c4cc(F)c5nc(C)n(C(C)C)c5c4)n3)nc2)CC1 + CNC(C)C(=O)NC1CN(S(=O)(=O)c2cccc(S(=O)(=O)N3CCC4CCC(C(=O)NC(c5ccccc5)c5ccccc5)N4C(=O)C(NC(=O)C(C)NC)C3)c2)CCC2CCC(C(=O)NC(c3ccccc3)c3ccccc3)N2C1=O', '0 (no)');
